Observed IC50 values for CYP2C9 (Homo sapiens) are listed in what follows.
ATTRIBUTE MEASURED: IC50 (µM)

I = Cn1ncc2c1N(C(=O)c1cc(Br)c(O)c(Br)c1)CC1(CC1)O2
II = Cc1nn(C)c2c1OC1(CC1)CN2C(=O)c1cc(Br)c(O)c(Br)c1
III = C[C@@H]1CN(C(=O)c2cc(Br)c(O)c(Br)c2)c2c(cnn2C)O1
// rank above by IC50: first = highest number // respond by listing labels in the order requested III, II, I
(III: 15.5 µM, II: 10.4 µM, I: 4.25 µM)

###

# TEST TARGET: UniProt:Q96S37
# Sequence (Q96S37 1-553): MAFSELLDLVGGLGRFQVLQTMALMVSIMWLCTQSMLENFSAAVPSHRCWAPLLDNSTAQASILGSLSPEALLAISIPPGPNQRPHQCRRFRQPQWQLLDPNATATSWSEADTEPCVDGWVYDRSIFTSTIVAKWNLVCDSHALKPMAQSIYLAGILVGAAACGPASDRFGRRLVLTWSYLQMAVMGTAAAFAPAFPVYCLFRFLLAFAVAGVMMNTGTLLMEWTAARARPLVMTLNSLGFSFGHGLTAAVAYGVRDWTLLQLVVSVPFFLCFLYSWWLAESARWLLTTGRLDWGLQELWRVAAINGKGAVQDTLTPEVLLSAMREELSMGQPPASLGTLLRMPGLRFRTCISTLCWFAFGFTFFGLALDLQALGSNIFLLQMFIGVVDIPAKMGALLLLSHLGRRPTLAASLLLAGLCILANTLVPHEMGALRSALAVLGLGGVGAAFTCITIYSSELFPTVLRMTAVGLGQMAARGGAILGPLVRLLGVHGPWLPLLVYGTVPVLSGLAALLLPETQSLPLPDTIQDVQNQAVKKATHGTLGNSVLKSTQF
# PROTOCOL NOTES: URAT1 inhibitor activity, 14C-uric acid uptake in HEK293-URAT1 cells
# Type: cell-based
# CONDITION SUMMARY: URAT1 inhibition, 14C-Uric acid 5.0 μmol/L, 2 min
pIC50: −log10 of the molar value.
ATTRIBUTE MEASURED: pIC50

• C[C@H]1CN(C(=O)c2cc(Br)c(O)c(Br)c2)c2c(cnn2C)O1 [Example 5] = 7.40

A = O=C(c1cc(Br)c(O)c(Br)c1)N1CCOc2[nH]ncc21 [Example 20]
B = Cn1ncc2c1N(C(=O)c1cc(Br)c(O)c(Br)c1)CCC2 [Example 11]
C = C[C@@H]1CN(C(=O)c2cc(Br)c(O)c(Br)c2)c2c(cnn2C)O1 [Example 1]
List these items ordered by pIC50, big to small. // respond by listing labels in the order requested C, B, A
(C: 7.21, B: 7.00, A: 6.63)

P = Cn1ncc2c1OCCN2C(=O)c1cc(Br)c(O)c(Br)c1 [Example 21]
Q = Cn1ncc2c1N(C(=O)c1cc(Br)c(O)c(Br)c1)CCO2 [Example 2]
Form: Entry with minimum pIC50 (choose one): P / Q Return value: the label identifying the chosen record. P
(P: 6.53, Q: 7.16)

P = Cn1cc2c(n1)N(C(=O)c1cc(Br)c(O)c(Br)c1)CCO2 [Example 19]
Q = O=C(c1cc(Br)c(O)c(Br)c1)N1CCOc2cn[nH]c21 [Example 3]
Form: Entry with minimum pIC50 (choose one): P / Q Return value: the label identifying the chosen record. P
(P: 6.47, Q: 6.89)
